// provenance: patent US20030166872A1

Tested Target: T1, integrin αVβ3 (human, UniProt P06756 31-1048; P05106 27-788)
T1 construct: mature; biotinylated in capture lift and capture ELISA; also on M21 melanoma cells in some assays; also called vitronectin receptor; αVβ3 receptor
T1 sequence (P06756 31-1048, chain 1 of 2): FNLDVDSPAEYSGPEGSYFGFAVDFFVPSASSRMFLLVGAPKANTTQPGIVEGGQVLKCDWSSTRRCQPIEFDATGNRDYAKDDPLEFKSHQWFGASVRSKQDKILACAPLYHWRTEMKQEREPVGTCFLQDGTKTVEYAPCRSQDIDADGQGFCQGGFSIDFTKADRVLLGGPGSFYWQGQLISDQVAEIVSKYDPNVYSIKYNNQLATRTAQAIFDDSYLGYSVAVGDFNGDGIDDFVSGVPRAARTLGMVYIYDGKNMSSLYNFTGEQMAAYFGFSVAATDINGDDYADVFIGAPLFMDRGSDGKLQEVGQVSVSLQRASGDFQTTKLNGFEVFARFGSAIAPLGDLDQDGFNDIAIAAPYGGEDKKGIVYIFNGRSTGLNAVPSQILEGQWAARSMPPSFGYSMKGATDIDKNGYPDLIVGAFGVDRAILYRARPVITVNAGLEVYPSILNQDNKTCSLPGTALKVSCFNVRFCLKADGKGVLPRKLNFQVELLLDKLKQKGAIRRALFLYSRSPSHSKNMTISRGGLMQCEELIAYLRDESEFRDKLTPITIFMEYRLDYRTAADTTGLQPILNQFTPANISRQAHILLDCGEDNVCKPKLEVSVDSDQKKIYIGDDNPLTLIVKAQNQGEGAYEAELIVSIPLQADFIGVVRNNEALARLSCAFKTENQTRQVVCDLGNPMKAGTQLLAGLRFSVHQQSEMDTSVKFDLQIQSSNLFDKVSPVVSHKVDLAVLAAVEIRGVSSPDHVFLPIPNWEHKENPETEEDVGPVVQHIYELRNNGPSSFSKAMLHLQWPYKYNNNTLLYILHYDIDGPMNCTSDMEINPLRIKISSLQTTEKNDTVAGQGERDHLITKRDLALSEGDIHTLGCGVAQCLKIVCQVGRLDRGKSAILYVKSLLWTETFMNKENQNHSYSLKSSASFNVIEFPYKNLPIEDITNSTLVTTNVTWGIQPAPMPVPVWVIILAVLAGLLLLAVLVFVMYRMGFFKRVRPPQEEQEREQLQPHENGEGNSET
T1 sequence (P05106 27-788, chain 2 of 2): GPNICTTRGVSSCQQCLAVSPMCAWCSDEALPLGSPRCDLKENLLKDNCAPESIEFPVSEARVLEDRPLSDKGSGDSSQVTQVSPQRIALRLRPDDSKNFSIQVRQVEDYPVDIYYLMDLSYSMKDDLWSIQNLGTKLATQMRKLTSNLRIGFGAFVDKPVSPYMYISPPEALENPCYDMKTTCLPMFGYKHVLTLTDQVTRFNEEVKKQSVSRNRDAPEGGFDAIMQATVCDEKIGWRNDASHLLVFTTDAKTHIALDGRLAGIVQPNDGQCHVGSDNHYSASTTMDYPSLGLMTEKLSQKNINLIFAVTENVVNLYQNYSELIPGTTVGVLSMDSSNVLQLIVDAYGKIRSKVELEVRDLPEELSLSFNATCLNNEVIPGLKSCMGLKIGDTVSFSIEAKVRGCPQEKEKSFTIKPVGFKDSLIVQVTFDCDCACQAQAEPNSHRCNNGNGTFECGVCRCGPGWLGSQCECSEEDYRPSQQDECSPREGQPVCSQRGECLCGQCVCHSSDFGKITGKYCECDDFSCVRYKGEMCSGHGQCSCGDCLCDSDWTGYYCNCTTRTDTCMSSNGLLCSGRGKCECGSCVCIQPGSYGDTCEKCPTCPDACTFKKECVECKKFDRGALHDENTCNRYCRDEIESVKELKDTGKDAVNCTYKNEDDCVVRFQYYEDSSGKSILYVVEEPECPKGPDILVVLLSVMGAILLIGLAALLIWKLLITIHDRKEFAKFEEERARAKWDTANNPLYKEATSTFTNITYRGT
Measurement Description: ELISA titration of Fab on immobilized αVβ3
Entries and their fold enhanced binding over LM609 grafted antibody values follow.

# annotated cases, reported fold enhanced binding over LM609 grafted antibody shown
INSERT INTO measurements (binder, observed_result) VALUES
  ('LM609 grafted antibody variant E102 (Fab, V domains shown, Fab) VH: QVQLVESGGGVVQPGRSLRLSCAASGFTFSSYDMSWVRQAPGKGLEWVAKVSSGGGSTYYLDTVQGRFTISRDNSKNTLYLQMNSLRAEDTAVYYCARHNYGSFAEWGQGTTVTVSS VL: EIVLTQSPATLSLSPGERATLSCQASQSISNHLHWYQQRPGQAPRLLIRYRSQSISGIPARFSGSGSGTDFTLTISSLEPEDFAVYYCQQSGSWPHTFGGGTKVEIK', '> 3 fold'),
  ('LM609 grafted antibody variant N92 (Fab, V domains shown, Fab) VH: QVQLVESGGGVVQPGRSLRLSCAASGFTFSSYDMSWVRQAPGKGLEWVAKVSSGGGSTYYLDTVQGRFTISRDNSKNTLYLQMNSLRAEDTAVYYCARHNYGSFAYWGQGTTVTVSS VL: EIVLTQSPATLSLSPGERATLSCQASQSISNHLHWYQQRPGQAPRLLIRYRSQSISGIPARFSGSGSGTDFTLTISSLEPEDFAVYYCQQSNSWPHTFGGGTKVEIK', '> 3 fold');

Would you kindly look at the next entry?
Record summary for LM609 grafted antibody variant Q96 (Fab, V domains shown, Fab) VH: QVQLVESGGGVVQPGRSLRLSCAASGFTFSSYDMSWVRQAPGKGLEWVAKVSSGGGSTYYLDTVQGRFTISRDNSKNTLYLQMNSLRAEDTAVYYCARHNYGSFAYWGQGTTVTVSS VL: EIVLTQSPATLSLSPGERATLSCQASQSISNHLHWYQQRPGQAPRLLIRYRSQSISGIPARFSGSGSGTDFTLTISSLEPEDFAVYYCQQSGSWPQTFGGGTKVEIK : reported fold enhanced binding over LM609 grafted antibody = > 3 fold
